Target: LXRβ (Homo sapiens)
Construct: Co-transfection expression plasmids, comprising full-length LXRα (pCMX-h LXRα[…] or LXRβ (pCMX-hLXRβ))
Assay: Co-transfection assay (LXRE luciferase reporter), LXRβ
Details: CV-1 cells transfected with pCMX-hLXRβ and LXREx1-Tk-Luciferase; 20 hours incubation
Procedure: To measure the ability of compounds to activate or inhibit the transcriptional activity of LXR in a cell based assay, the co-transfection assay was used. It has been shown that LXR functions as a heterodimer with RXR. […] Treatment of transfected cells with an LXR agonist increases the transcriptional activity of LXR, which is measured by an increase in luciferase activity. […]
pEC50: −log10 of the molar value.
readout_type: pEC50

I: Cc1cc(-c2cc(-c3cc(F)c(CO)c(S(C)(=O)=O)c3)ccc2-n2cc(C(F)(F)F)nc2C)n(-c2ccc(Cl)cc2)n1
II: CCC(F)(F)c1cn(-c2ccc(-c3cc(F)c(CO)c(S(C)(=O)=O)c3)cc2-n2nncc2-c2ccc(OC(F)(F)F)cc2)c(C)n1
III: Cc1nc(C(F)(F)F)cn1-c1ccc(-c2cccc(S(C)(=O)=O)c2)cc1-n1nncc1-c1ccc(SC(F)(F)F)cc1
// sort listed items: pEC50 descending Please respond by ranking the labels in the order requested.
I, II, III

###

Target: LXRβ (Homo sapiens, UniProt P55055)
Construct: Co-transfection expression plasmids, comprising full-length LXRα (pCMX-h LXRα[…] or LXRβ (pCMX-hLXRβ))
Test: Co-transfection assay (LXRE luciferase reporter), LXRβ
Details: CV-1 cells transfected with pCMX-hLXRβ and LXREx1-Tk-Luciferase; 20 hours incubation
readout_type: EC50 (nM)

Previously resolved entries follow.
Cc1nc(C(F)(F)F)cn1-c1ccc(-c2cc(F)c(CO)c(S(C)(=O)=O)c2)cc1-c1oc(CCO)nc1-c1ccc2c(c1)OC(F)(F)O2 ... 790
Cc1nc(-c2ccc(OC(F)(F)F)cc2)c(-c2cc(-c3cc(F)c(CO)c(S(C)(=O)=O)c3)ccc2-n2cc(C(F)(F)F)nc2C)o1 ... 40
Cc1nc(C(F)(F)F)cn1-c1cc(F)c(-c2cccc(S(C)(=O)=O)c2)cc1-n1nncc1-c1ccc(Cl)cc1Cl ... 782

P: COc1ccc(-c2ccc(-n3cc(C(F)(F)F)nc3C)c(-n3nncc3-c3ccc(OC(F)(F)F)cc3)c2)cc1S(C)(=O)=O
Q: Cc1nc(-c2ccc(OC(F)(F)F)cc2)c(-c2cc(-c3cccc([S+](C)[O-])c3)ccc2-n2cc(C(F)(F)F)nc2C)o1 (stereo not drawn)
Higher EC50 between P and Q ? Return value: the label identifying the chosen record.
P
(P: 2340 nM, Q: 269 nM)

###

Target: LXRβ (Homo sapiens, UniProt P55055)
Construct: Co-transfection expression plasmids, comprising full-length LXRα (pCMX-h LXRα[…] or LXRβ (pCMX-hLXRβ))
Test: Co-transfection assay (LXRE luciferase reporter), LXRβ
Details: CV-1 cells transfected with pCMX-hLXRβ and LXREx1-Tk-Luciferase; 20 hours incubation
readout_type: EC50 (nM)

Previously resolved entries follow.
Cc1nc(-c2cc(-c3cccc(S(C)(=O)=O)c3)ccc2-n2cc(C(F)(F)F)nc2C)c(-c2cc(Cl)cc(Cl)c2)o1 [Example 455] ... 192
Cc1nc(-c2ccccc2OC(F)(F)F)c(-c2cc(-c3cc(F)c(CO)c(S(C)(=O)=O)c3)ccc2-n2cc(C(F)(F)F)nc2C)o1 [Example 632] ... 34
CCOc1ncc(-c2oc(C)nc2-c2cc(-c3cc(F)c(CO)c(S(C)(=O)=O)c3)ccc2-n2cc(C(F)(F)F)nc2C)cc1F [Example 472] ... 199

1: Cc1nc(C(F)(F)F)cn1-c1c(F)cc(-c2cccc(S(C)(=O)=O)c2)cc1-n1nncc1-c1ccc(Cl)cc1Cl [Example 8]
2: COc1ncc(-c2oc(C)nc2-c2cc(-c3cccc(S(C)(=O)=O)c3)ccc2-n2cc(Cl)nc2C)cc1F [Example 464]
3: Cc1nc(-c2cc(-c3cccc(S(C)(=O)=O)c3)ccc2-n2cc(C(C)O)nc2C)c(-c2ccc3c(c2)OC(F)(F)O3)o1 (single isomer, unassigned) [Example 514]
4: Cc1nc(-c2cc(-c3cc(F)c(CO)c(S(C)(=O)=O)c3)ccc2-n2cc(C(F)(F)F)nc2C)c(-c2ccc(OC(F)F)cc2)o1 [Example 496]
Rank by EC50 (largest to smallest). Please respond by ranking the labels in the order requested.
2, 3, 1, 4
(2: 4680 nM, 3: 3000 nM, 1: 143 nM, 4: 48 nM)

###

Target: LXRβ (Homo sapiens)
Construct: Co-transfection expression plasmids, comprising full-length LXRα (pCMX-h LXRα[…] or LXRβ (pCMX-hLXRβ))
Assay: Co-transfection assay (LXRE luciferase reporter), LXRβ
Details: CV-1 cells transfected with pCMX-hLXRβ and LXREx1-Tk-Luciferase; 20 hours incubation
readout_type: EC50 (nM)

1: Cc1nc(C(F)(F)F)cn1-c1ccc(-c2cccc(S(C)(=O)=O)c2)cc1-n1nncc1-c1ccc(OC(F)(F)F)cc1F [Example 61]
2: Cc1nc(-c2cc(-c3cc(F)c(CO)c(S(C)(=O)=O)c3)ccc2-n2cc(C(F)(F)F)nc2C)c(-c2ccc(OC(F)F)c(OC(F)F)c2)o1 [Example 393]
3: Cc1nc(-c2cc(-c3cccc(S(C)(=O)=O)c3)ccc2-n2cc(C(F)(F)F)nc2C)c(-c2ccc3c(c2)CC(C)(C)O3)o1 [Example 419]
// sort listed items: EC50 descending Please respond by ranking the labels in the order requested.
1, 3, 2

###

Target: LXRβ (Homo sapiens, UniProt P55055)
Construct: Co-transfection expression plasmids, comprising full-length LXRα (pCMX-h LXRα[…] or LXRβ (pCMX-hLXRβ))
Sequence (P55055 1-460): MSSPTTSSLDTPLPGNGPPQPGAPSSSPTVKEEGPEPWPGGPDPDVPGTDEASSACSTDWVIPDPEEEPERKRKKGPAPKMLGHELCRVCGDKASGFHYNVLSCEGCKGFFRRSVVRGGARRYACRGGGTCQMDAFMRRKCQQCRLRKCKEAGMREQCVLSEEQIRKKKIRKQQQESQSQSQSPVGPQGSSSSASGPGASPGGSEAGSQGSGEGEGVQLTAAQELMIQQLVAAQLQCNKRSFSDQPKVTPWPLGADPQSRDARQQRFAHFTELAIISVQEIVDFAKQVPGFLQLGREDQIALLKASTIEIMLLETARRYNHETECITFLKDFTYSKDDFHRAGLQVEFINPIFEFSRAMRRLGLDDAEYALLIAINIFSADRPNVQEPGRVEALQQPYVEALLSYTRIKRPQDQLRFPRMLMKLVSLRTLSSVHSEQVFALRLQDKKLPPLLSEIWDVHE
Sequence (P19793 1-462 partner): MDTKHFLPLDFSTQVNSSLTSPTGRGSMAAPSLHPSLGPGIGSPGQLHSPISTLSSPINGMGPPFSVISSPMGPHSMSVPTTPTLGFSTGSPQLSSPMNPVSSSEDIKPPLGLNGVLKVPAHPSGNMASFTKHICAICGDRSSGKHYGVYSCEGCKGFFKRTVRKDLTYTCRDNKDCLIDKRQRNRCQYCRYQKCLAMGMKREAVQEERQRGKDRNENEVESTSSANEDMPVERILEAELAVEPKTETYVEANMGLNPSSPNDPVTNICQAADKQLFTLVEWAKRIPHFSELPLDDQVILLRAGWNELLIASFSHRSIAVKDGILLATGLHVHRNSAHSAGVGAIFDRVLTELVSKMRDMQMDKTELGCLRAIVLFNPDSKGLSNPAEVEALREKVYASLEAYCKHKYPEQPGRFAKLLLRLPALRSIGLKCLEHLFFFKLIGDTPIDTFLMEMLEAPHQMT
Assay: Co-transfection assay (LXRE luciferase reporter), LXRβ
Settings: CV-1 cells transfected with pCMX-hLXRβ and LXREx1-Tk-Luciferase; 20 hours incubation
readout_type: EC50 (nM)

Previously resolved entries follow.
Cc1nc(C(F)(F)F)cn1-c1ccc(-c2cccc(S(C)(=O)=O)c2)cc1-c1oc(CCN2CCCC2)nc1-c1ccc(OC(F)(F)F)cc1 ... 202
Cc1nc(C(F)(F)F)cn1-c1ccc(-c2cccc(S(C)(=O)=O)c2)cc1-n1nncc1-c1ccc(N2CCCC2)cc1 ... 158
Cc1nc(C(F)(F)F)cn1-c1ccc(-c2cccc(S(C)(=O)=O)c2)cc1-n1nncc1C(C)(F)c1ccc(Cl)cc1 (stereo not drawn) ... 411

a: Cc1nc(C(F)(F)F)cn1-c1ccc(-c2cccc(S(C)(=O)=O)c2)cc1-n1nncc1C(C)c1ccc(Cl)cc1 (stereo not drawn)
b: Cc1cc(-c2oc(C)nc2-c2cc(-c3cc(F)c(CO)c(S(C)(=O)=O)c3)ccc2-n2cc(C(F)(F)F)nc2C)cc(Cl)n1 [Example 452]
c: CCS(=O)(=O)c1cccc(-c2ccc(-n3cc(C(F)(F)F)nc3C)c(-n3nncc3-c3ccc(OC(F)(F)F)cc3)c2)c1
Rank by EC50 (largest to smallest). Please respond by ranking the labels in the order requested.
c, a, b
